Target: T1, PDZD2_2, O15018
T1 sequence (O15018 329-429, limits assumed, looked up): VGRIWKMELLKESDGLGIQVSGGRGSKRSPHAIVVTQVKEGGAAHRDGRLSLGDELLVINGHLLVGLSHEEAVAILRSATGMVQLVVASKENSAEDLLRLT
Assay: holdup assay
Set-up: key: below the threshold = too weak to quantify, mostly under pKd 3.1 to 4
Conditions: plain residues with an end cap or a label only (N-terminal biotin on a linker: ahx)
Would you mind telling me the reported pKd of each entry?
Give the value as a plain number.

Lookup: Query (binder): HSATSVHTSV [MTMR1, Q13613] ; field requested: pKd
Found: 4.23

Lookup: Consider next the binder YNSFLSVTTV [PDZRN3, Q9UPQ7] in the same way.
Found: 3.55

Lookup: What about SKKNELFSNL [NHERF1, O14745] ?
Found: 4.38

Lookup: Follow-up item: AKPQPVDSWV [ARVCF, O00192]
Found: 5.95

Lookup: Again, but for ADENEQVSAV [RAPGEF6, Q8TEU7]
Found: 5.5

Lookup: Another binder to check: KDECVIATEV [DLL1, O00548]
Found: 4.51

Lookup: Same lookup for KEYDDELTFF [USH1C, Q9Y6N9] , please.
Found: 3.75
